Task for the reader: assign each of the following substances its reported metabolised at 5 min.
test: In vitro enzymatic digestion model of the digestive tract (pepsin, pancreatin, bile), HPLC; assay type: in vitro ADME; conditions: Oral phase 5 min.; read-out: Degradation (%)
Where no end group is shown, it is not given here.
Dear colleague, please return just the value in %, with no unit written.

Input: For SDNFEY [Peptide P6a, SDNFEY] , what is its reported metabolised at 5 min?
Output: 23.7

Input: For SVIKPPTD [Peptide P8a, SVIKPPTD] , what is its reported metabolised at 5 min?
Output: 1.7

Input: For EEDQPRPDHPPQRP [Peptide P14c, EEDQPRPDHPPQRP] , what is its reported metabolised at 5 min?
Output: 5.3

Input: For QGENEGEDKGAIVT [Peptide P14b, QGENEGEDKGAIVT] , what is its reported metabolised at 5 min?
Output: 6
